# System: Fer (mouse)
# Protocol text: phosphorylation enrichment, bacterial display (enrichment ratio); higher = better substrate or ligand; peptides without Tyr show the background;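 note: 11-residue human phosphosite peptides and single-mutation variants displayed on the E. coli surface, counted by deep sequencing, each peptide's frequency after selection divided by its frequency in the unselected input library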;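 note: frequency after pTyr selection over input frequency; kinase dosed for 20-30% of maximal phosphorylation in three min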
Entries and their phosphorylation enrichment values follow.
Readout name: phosphorylation enrichment

>>> numeric_result("DLAAQYTTVGH [SGSH_Y240_R245H]")
0.519
>>> numeric_result("KVVVPYEPPEV [TP53_Y220_S215K]")
0.38
>>> numeric_result("AKKKMYSCKTK [AGXT_Y231_R233C]")
0.613
>>> numeric_result("TAPFNYSFIFK [RAB14_Y8_YF]")
0.376
>>> numeric_result("RFLFFYSFLLK [PTEN_Y178_V175L_YF]")
0.765
>>> numeric_result("DKATEYSQFMR [MAX_Y70_I71S_YF]")
0.392
>>> numeric_result("CLSHCYFSQIR [MCM3AP_Y873_L870S]")
0.388

---

# Target: FGFR1 (UniProt P11362)
# Sequence (P11362 whole entry, looked up): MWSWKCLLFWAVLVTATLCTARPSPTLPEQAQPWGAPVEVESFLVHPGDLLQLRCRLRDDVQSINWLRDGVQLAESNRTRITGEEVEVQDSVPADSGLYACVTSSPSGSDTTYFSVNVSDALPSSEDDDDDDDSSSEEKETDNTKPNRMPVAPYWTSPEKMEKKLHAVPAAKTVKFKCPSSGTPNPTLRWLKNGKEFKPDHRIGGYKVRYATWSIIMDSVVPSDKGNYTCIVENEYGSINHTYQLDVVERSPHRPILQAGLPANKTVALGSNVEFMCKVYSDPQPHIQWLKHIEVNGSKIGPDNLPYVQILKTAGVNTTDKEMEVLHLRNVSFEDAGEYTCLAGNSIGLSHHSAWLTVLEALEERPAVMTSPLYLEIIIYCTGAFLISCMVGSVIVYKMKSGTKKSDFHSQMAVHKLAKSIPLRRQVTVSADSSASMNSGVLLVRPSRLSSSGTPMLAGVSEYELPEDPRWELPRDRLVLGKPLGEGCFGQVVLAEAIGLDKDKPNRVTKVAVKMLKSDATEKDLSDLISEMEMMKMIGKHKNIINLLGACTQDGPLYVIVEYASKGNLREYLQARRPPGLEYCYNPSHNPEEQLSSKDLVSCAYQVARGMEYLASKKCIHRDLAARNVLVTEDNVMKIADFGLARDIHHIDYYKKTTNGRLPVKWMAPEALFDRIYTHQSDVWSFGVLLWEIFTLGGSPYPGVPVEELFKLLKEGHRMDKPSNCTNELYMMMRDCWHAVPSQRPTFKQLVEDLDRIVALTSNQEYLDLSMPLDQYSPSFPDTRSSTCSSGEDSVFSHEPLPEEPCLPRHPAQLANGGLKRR
# Protocol text: phosphorylation enrichment, bacterial display (enrichment ratio); higher = better substrate or ligand; peptides without Tyr show the background
In this section, each of the sequences is paired with its reported phosphorylation enrichment.
Readout name: phosphorylation enrichment

>>> numeric_result("ITSLLYHVVGW [GBA_Y412_N409S]")
5.64
>>> numeric_result("EKFVPYYDLFM [IPO5_Y530]")
6.89
>>> numeric_result("TIMTNYNPNFC [ALK_Y1092_D1091N_YF]")
0.576
>>> numeric_result("TVSSDYLHPQY [CCPG1_Y569_F566S]")
0.528
>>> numeric_result("EEEFEYMNRRR [ERBB3_Y1199_D1194E_YF]")
0.554
>>> numeric_result("DVCKNYAEAKD [ALB_Y343]")
0.569
>>> numeric_result("MENFIYESMQY [CYP19A1_Y361_R365Q]")
0.652
>>> numeric_result("MHDKEYYSVHN [MET_Y1234_Y1230H]")
3.36
>>> numeric_result("LNECHYGALIG [BPGM_Y92_R90C]")
0.701
>>> numeric_result("VFSTDCFRVGG [NTRK2_Y706_Y706C_YF]")
0.565
>>> numeric_result("RFLERYIYNRE [HLA-DPB1_Y57]")
0.495
>>> numeric_result("FLAVGYHKLHI [IDS_Y225_P228L]")
0.447
>>> numeric_result("IEPVIDVVQRR [ANOS1_Y217_Y217D]")
0.393
>>> numeric_result("DFTSRYLSASD [PKHD1_Y828_N830S]")
0.535
>>> numeric_result("IGSHAYGDQFR [IDH1_Y135_R132S_YF]")
0.518
>>> numeric_result("RNAAEYPLSSG [ABL1_Y139_L140P]")
0.445
>>> numeric_result("ETRWKYHFEVV [GCNT3_Y267]")
0.505
>>> numeric_result("GIADDYDKKKL [EIF1_Y54]")
0.465
>>> numeric_result("AASTDYFKRGD [PDHA1_Y242_YF]")
0.402
>>> numeric_result("EYRFIYMAVQH [PTPN11_Y515_Q510E]")
2.02
>>> numeric_result("FPLELYERVRM [PRKCG_Y312_YF]")
0.988
>>> numeric_result("KTVQDYLEKFY [MMP8_Y36]")
0.627
>>> numeric_result("IRTIDYRFTVC [IDS_Y497_W502C_YF]")
0.561
>>> numeric_result("LLANAYIYDVQ [L1CAM_Y418_V421D]")
0.391
>>> numeric_result("RRGTRYMSSRP [RPL21_Y13_F15S]")
0.551
>>> numeric_result("GHLFANDWISI [BEST1_Y227_Y227N_YF]")
0.43
>>> numeric_result("VPLATYMRIYK [RPL21_Y30]")
0.526
>>> numeric_result("KLQKFYRKNPD [EHHADH_Y683_Q685K_YF]")
0.401
>>> numeric_result("WTAHSYRMGST [ARHGEF7_Y785]")
0.496

---

# Target: Fyn (UniProt P06241)
# Sequence (P06241 whole entry, looked up): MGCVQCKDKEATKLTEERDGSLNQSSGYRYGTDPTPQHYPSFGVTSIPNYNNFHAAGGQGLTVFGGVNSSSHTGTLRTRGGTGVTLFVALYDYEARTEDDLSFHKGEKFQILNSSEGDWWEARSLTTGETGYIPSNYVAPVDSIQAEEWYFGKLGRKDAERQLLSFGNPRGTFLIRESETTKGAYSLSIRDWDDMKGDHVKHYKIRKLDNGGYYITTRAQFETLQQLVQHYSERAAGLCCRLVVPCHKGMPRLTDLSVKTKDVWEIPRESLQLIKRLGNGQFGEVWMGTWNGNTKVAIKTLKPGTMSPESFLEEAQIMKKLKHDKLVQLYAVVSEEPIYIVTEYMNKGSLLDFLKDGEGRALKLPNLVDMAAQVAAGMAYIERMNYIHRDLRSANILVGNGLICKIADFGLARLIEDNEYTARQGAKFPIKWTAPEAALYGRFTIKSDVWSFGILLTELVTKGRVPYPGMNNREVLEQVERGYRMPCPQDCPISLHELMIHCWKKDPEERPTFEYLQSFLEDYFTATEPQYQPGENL
# Protocol text: phosphorylation enrichment, bacterial display (enrichment ratio); higher = better substrate or ligand; peptides without Tyr show the background
Readout name: phosphorylation enrichment

>>> numeric_result("EKFVPYYDLFM [IPO5_Y530]")
3.05
>>> numeric_result("ATFRGYDSDNP [MMUT_Y146_H143Y_YF]")
0.51
>>> numeric_result("LKGQVYILGWE [ASS1_Y359_R363W]")
0.575
>>> numeric_result("EIRTQYEAMAS [GFAP_Y242]")
0.55
>>> numeric_result("LLKANYELLNA [POLR3A_Y714_K713N]")
0.431
>>> numeric_result("AFLLLCFNDTH [BMP15_Y235_Y235C]")
0.563
>>> numeric_result("YQGGTYSKACT [FGG_Y380_S384C]")
0.383
>>> numeric_result("YQKDVYDIPPS [NEDD9_Y177]")
3.66
>>> numeric_result("YFRDGYMPRQY [GSS_Y270]")
0.479
>>> numeric_result("RLRKFHLGKFL [KLB_Y906_Y906H_YF]")
0.574
>>> numeric_result("IGRGSYAKVLL [PRKCZ_Y263]")
0.384
>>> numeric_result("KEAALYPHLLP [SQSTM1_Y383_P387L]")
0.405
>>> numeric_result("HPYNSYTYPRL [PAK5_Y316_S312P]")
0.968
>>> numeric_result("SSVAGYACLAF [MVD_Y131_A128V_YF]")
0.478
>>> numeric_result("KRFAFYRDSPR [FOXE3_Y108_E103K]")
0.446
>>> numeric_result("KGEDFYCVTYH [FHL1_Y149_C153Y]")
2.6
>>> numeric_result("NREGVYTVFAP [TGFBI_Y537]")
13.3
>>> numeric_result("WGLRSYFETSK [MAGED2_Y448_YF]")
0.526
>>> numeric_result("LVQAEYWHDPI [PPT1_Y185]")
0.58
>>> numeric_result("RYMELYDLNRD [BBS2_Y648]")
1.67
>>> numeric_result("LAIERYVVVCK [RHO_Y136]")
0.597
>>> numeric_result("SLAARYYNWVS [FLT4_Y1230]")
0.512
>>> numeric_result("FGSSSSGGAGG [RPA2_Y14_Y14S_YF]")
0.419
>>> numeric_result("FLAVGYHKPRI [IDS_Y225_H229R]")
0.426
>>> numeric_result("WRGMPYGGRGD [TGM1_Y312_R307W]")
0.467
>>> numeric_result("FPLELYERVRM [PRKCG_Y312_YF]")
0.629
>>> numeric_result("SECCKYKIDNP [OSMR_Y689]")
0.411
>>> numeric_result("NNDLCYWVPEL [IARS1_Y434]")
1.92
>>> numeric_result("GVRYTYTIDGS [DCX_Y105_I104T]")
0.543
>>> numeric_result("CTTIHSNFMCN [TP53_Y234_Y234S_YF]")
0.416
>>> numeric_result("CTTIHYNFMCD [TP53_Y234_N239D_YF]")
0.442
>>> numeric_result("PEQAAYQKVVA [HBB_Y131_V127E]")
0.462
>>> numeric_result("SVVVPDEPPEV [TP53_Y220_Y220D]")
0.582
>>> numeric_result("GTFEDYVEGLR [MYL6_Y89_YF]")
0.427
>>> numeric_result("CEETFYTMKVN [MASP2_Y401]")
1.04
>>> numeric_result("LEHCQYVTQKV [ALDOB_Y204_E207Q]")
0.47
>>> numeric_result("EALDFYGELRT [PTEN_Y155_V158L]")
0.933
>>> numeric_result("EKQARYEIVEE [CDH5_Y223_V227E]")
0.542
>>> numeric_result("FLAVGYHMPHI [IDS_Y225_K227M]")
0.395
>>> numeric_result("FGFPGYQSKHF [TIMP3_Y177_YF]")
0.521
>>> numeric_result("KGERGYPGTPG [COL4A1_Y348]")
0.311
>>> numeric_result("SEPSGYQDNIA [DES_Y363_A360P]")
0.724
>>> numeric_result("PFGQWYESHFA [RPS8_Y113_R110G_YF]")
1.32
>>> numeric_result("KKHIPYSEHKS [CSNK1G2_Y206_R207S]")
0.374
>>> numeric_result("NELTFYCFKKD [CD59_Y87_C89Y_YF]")
0.412
>>> numeric_result("KFFRVYQGQQP [MUTYH_Y494_V490F]")
0.623
>>> numeric_result("RLSELYLRRNR [CFAP410_Y68]")
0.878
>>> numeric_result("KNAEKYAEEDW [HSPA9_Y568_R573W]")
0.533
>>> numeric_result("TEVRRYVLPLN [RPE65_Y368_P363T]")
0.412
>>> numeric_result("RRAKGYPIFLF [ITGB2_Y125_D128Y_YF]")
0.624
>>> numeric_result("STGWSYAGVAV [KLHL3_Y577_R575W]")
0.416
>>> numeric_result("VVSLFYGTALF [OR10C1_Y251_M246V]")
1.94
>>> numeric_result("TVLEPYADPFF [ZC3H18_Y367_YF]")
0.526
>>> numeric_result("TVDASYCGGRG [ANTXR2_Y380_Y381C]")
0.383
>>> numeric_result("RGGWVYVLHPT [TRMT61A_Y67]")
1.25
>>> numeric_result("ADKSAYLMGPN [MYH7_Y386_L390P]")
0.544
>>> numeric_result("CEAMEYQESKQ [BTK_Y511_L512Q]")
0.63
